// cross-source set; read-out = pKi; system = Beta-secretase 1 (Homo sapiens, UniProt P56817)
Sequence (P56817 whole entry): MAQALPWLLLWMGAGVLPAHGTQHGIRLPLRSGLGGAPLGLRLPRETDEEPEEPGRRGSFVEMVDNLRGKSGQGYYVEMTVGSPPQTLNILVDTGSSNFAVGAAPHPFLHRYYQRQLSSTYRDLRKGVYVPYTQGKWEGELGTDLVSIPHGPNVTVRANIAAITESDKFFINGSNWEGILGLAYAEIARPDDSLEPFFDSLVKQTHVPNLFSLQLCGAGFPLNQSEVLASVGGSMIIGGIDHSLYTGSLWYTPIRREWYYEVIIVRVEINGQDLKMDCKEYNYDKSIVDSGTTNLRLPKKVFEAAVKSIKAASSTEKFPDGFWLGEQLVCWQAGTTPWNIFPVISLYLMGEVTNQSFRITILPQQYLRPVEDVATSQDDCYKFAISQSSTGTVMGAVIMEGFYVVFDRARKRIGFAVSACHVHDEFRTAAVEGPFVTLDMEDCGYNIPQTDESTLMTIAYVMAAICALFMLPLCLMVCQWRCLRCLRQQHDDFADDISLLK
Just so you know, pKi here is -log10 of the concentration in molar units; reply with that number alone.

# MOLECULE, MEASURED_ON, pKi
measured = [
    ("C[C@@H](NC(=O)c1cc(C(=O)N[C@@H](Cc2ccccc2)[C@H](O)CNCc2ccc3ccn(S(C)(=O)=O)c3c2)cc(N(C)S(C)(=O)=O)c1)c1ccccc1", "Beta-secretase 1 (Homo sapiens, UniProt P56817)", 7.57),
]

Task item: Return reported pKi; argument: CN1C(=O)C(c2ccccc2)(c2cccc(-c3ccncc3)c2)N=C1N (racemic)
Reply: 5.42

Task item: I am curious: what pKi value has been reported for COc1cncc(-c2cccc(C3(C4CC4)NC(=N)N(C)C3=O)c2)c1 (stereo not given) ?
Reply: 7.00

Task item: // query pKi value for entry "Cc1nc(COC(=O)N[C@@H](CS(C)(=O)=O)C(=O)N[C@@H](CC(C)C)[C@@H](O)C[C@@H](C)C(=O)N[C@H](C(=O)NC(C)(C)C)C(C)C)c(C)o1"
Reply: 9.92

Task item: Name the recorded pKi for "COC/C=C/c1cc(Cl)cc(CN/C(N)=N/C(=O)c2c(-c3ccc(OC)cc3)noc2C)c1" .
Reply: 6.82

Task item: // lookup pKi for "CN1C(=N)N[C@](CCC2CCCCC2)(C[C@H]2CCC[C@@H](NC(=O)c3ccccc3)C2)C1=O"
Reply: 6.89

Task item: Which pKi value is on record for "C=C(C)[C@H](CC=C(C)C)Cc1c(O)cc(O)c2c1O[C@H](c1ccccc1O)CC2=O" ?
Reply: 5.52

Task item: Consider the molecule "Cc1onc(-c2ccc(F)cc2)c1C(=O)NC(N)=NCc1cc(Cl)cc(Cl)c1" and give its measured pKi.
Reply: 5.66

Task item: What value of pKi has been reported for the following molecule? CN1C(=O)C(c2ccccc2)(c2cccc(Cl)c2)N=C1N (racemic)
Reply: 6.52

Task item: Can you share its pKi? I mean this molecule: "COc1ccc(-c2onc(C)c2C(=O)/N=C(\N)NCc2cc(Cl)cc(Cl)c2)cc1"
Reply: 6.07
